# assayed_system: MMP-7 (Homo sapiens, UniProt P09237)
# Construct: purchased SIGMA CC1059
# Sequence (P09237 95-267): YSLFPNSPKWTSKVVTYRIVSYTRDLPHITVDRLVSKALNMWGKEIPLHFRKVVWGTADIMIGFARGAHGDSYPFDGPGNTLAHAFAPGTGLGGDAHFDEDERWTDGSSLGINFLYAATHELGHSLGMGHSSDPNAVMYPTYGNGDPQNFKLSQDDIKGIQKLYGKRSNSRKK
# method_description: FRET peptide cleavage efficiency with MMP-7 (standard pH 7.5; also pH 6.5)
# Format: biochemical
# condition_label: t = 60 min (Table 9)
Square brackets hold non-standard residues; d marks the D form. Ends that are not written are not given here. Tyr(3-NO2) = N[C@@H](Cc1ccc(O)c([N+](=O)[O-])c1)C(=O)O; Nle = CCCC[C@H](N)C(=O)O; 2Abz = Nc1ccccc1C(=O)O
Recorded measurements of % cleavage MMP-7 t = 60 min, one per entry
Provide only the numeric value, understood in %.

Record excerpt, results attached:
substance	assayed_system	assay_endpoint	units_label	readout_value
SGRVANYFGKL ([2Abz]SGRVANYFGKL[Tyr(3-NO2)]-NH2) [LNK054]	MMP-7 (Homo sapiens, UniProt P09237)	% cleavage MMP-7 t = 60 min	%	0
SGRVANPLGGSG ([2Abz]SGRVANPLGGSG[Tyr(3-NO2)]-NH2) [LNK053]	MMP-7 (Homo sapiens, UniProt P09237)	% cleavage MMP-7 t = 60 min	%	0
RGRKPYMLQG ([2Abz]RGRKPYMLQG[Tyr(3-NO2)]-NH2) [LNK035]	MMP-7 (Homo sapiens, UniProt P09237)	% cleavage MMP-7 t = 60 min	%	80

Report % cleavage MMP-7 t = 60 min for RGRKSQPLVD ([2Abz]RGRKSQPLVD[Tyr(3-NO2)]-NH2) [LNK041] please.
4

Now try RGRKSPY-Nle-LQG ([2Abz]RGRKSPY[Nle]LQG[Tyr(3-NO2)]-NH2) [LNK038] .
69

Now try RGRRPLGLAGGSG ([2Abz]RGRRPLGLAGGSG[Tyr(3-NO2)]-NH2) [LNK051] .
8

Now try RGRRGP ([2Abz]RGRRGP[Tyr(3-NO2)]-NH2) [LNK048] .
0

Now try RGRRVANLVG ([2Abz]RGRRVANLVG[Tyr(3-NO2)]-NH2) [LNK033] .
86

Now try RGRRHSSKLQPLGYFGKL ([2Abz]RGRRHSSKLQPLGYFGKL[Tyr(3-NO2)]-NH2) [LNK062] .
0

Now try RGRKSPANLVG ([2Abz]RGRKSPANLVG[Tyr(3-NO2)]-NH2) [LNK034] .
89

* * *

# assayed_system: MMP-2 (Homo sapiens, UniProt P08253)
# Construct: purchased SIGMA PF023
# Sequence (P08253 110-660): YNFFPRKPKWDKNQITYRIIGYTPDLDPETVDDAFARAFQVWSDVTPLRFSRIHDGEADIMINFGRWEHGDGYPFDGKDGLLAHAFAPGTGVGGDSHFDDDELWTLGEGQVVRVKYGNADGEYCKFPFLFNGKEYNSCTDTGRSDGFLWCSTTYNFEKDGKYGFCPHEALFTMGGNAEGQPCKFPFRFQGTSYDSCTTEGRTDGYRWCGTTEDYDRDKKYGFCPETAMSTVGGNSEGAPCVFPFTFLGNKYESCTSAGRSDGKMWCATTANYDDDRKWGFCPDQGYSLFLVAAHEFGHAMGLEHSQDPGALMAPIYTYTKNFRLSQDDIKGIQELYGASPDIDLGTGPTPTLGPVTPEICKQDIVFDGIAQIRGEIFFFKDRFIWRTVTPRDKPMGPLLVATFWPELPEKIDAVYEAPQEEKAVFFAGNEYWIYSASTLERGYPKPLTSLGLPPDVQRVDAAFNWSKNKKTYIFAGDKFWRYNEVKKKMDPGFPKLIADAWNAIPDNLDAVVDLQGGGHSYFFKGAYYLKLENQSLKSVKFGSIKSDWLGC
# method_description: FRET peptide cleavage efficiency with MMP-2
# Format: biochemical
# condition_label: t = 15 min; 200 uM linker, 1 ug/ml protease, 37° C., buffer C pH 7.5
Square brackets hold non-standard residues; d marks the D form. Ends that are not written are not given here. Tyr(3-NO2) = N[C@@H](Cc1ccc(O)c([N+](=O)[O-])c1)C(=O)O; 2Abz = Nc1ccccc1C(=O)O
assay_endpoint: % cleavage MMP-2 t = 15 min (%)
Provide only the numeric value, understood in %.

substance	units_label	readout_value
RGRRVANPLGYFGKL ([2Abz]RGRRVANPLGYFGKL[Tyr(3-NO2)]-NH2) [LNK058]	%	68
RRLHYSL ([2Abz]RRLHYSL[Tyr(3-NO2)]-NH2) [LNK073]	%	1
SGRVLPLGMRA ([2Abz]SGRVLPLGMRA[Tyr(3-NO2)]-NH2) [LNK023]	%	96

Now examine the next entry.
Find % cleavage MMP-2 t = 15 min (MMP-2 (Homo sapiens, UniProt P08253)) for the entry SSRGRRGPYMLQG ([2Abz]SSRGRRGPYMLQG[Tyr(3-NO2)]-NH2) [LNK021]
23

* * *

# assayed_system: MMP-2 (Homo sapiens, UniProt P08253)
# Construct: purchased SIGMA PF023
# Sequence (P08253 110-660): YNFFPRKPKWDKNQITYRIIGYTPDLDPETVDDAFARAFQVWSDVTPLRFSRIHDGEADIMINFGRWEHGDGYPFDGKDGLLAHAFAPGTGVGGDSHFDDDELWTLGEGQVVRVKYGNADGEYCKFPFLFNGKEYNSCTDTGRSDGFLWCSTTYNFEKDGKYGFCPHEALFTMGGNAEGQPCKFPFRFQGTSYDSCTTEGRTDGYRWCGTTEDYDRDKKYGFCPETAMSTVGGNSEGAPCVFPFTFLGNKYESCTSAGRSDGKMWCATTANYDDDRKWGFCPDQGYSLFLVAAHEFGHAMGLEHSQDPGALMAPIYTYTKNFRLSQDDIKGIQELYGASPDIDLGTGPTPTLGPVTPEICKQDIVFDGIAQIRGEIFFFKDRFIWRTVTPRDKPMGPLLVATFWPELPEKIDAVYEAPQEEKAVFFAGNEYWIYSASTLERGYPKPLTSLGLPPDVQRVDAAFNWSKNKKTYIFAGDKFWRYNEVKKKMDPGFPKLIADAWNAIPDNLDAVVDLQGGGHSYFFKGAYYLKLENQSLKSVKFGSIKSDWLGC
# method_description: FRET peptide cleavage efficiency with MMP-2
# Type: biochemical
# condition_label: t = 120 min; 200 uM linker, 1 ug/ml protease, 37° C., buffer C pH 7.5
Square brackets hold non-standard residues; d marks the D form. Ends that are not written are not given here. Tyr(3-NO2) = N[C@@H](Cc1ccc(O)c([N+](=O)[O-])c1)C(=O)O; 2Abz = Nc1ccccc1C(=O)O
assay_endpoint: % cleavage MMP-2 t = 120 min

substance	assayed_system	% cleavage MMP-2 t = 120 min
SGRVLTLRKAPWGLLE ([2Abz]SGRVLTLRKAPWGLLE[Tyr(3-NO2)]-NH2) [LNK004]	MMP-2 (Homo sapiens, UniProt P08253)	74%
SSRGRRGPYMLQG ([2Abz]SSRGRRGPYMLQG[Tyr(3-NO2)]-NH2) [LNK021]	MMP-2 (Homo sapiens, UniProt P08253)	88%
SGRVLPAGLVG ([2Abz]SGRVLPAGLVG[Tyr(3-NO2)]-NH2) [LNK007]	MMP-2 (Homo sapiens, UniProt P08253)	94%
GSSYYSGA ([2Abz]GSSYYSGA[Tyr(3-NO2)]-NH2) [LNK079]	MMP-2 (Homo sapiens, UniProt P08253)	70%
HSSKLQYFGKL ([2Abz]HSSKLQYFGKL[Tyr(3-NO2)]-NH2) [LNK061]	MMP-2 (Homo sapiens, UniProt P08253)	100%
KWGKSAPLGLAG ([2Abz]KWGKSAPLGLAG[Tyr(3-NO2)]-NH2) [LNK026]	MMP-2 (Homo sapiens, UniProt P08253)	98%
SGRVLRKAGPQPLVD ([2Abz]SGRVLRKAGPQPLVD[Tyr(3-NO2)]-NH2) [LNK003]	MMP-2 (Homo sapiens, UniProt P08253)	65%
KLYSSKQ ([2Abz]KLYSSKQ[Tyr(3-NO2)]-NH2) [LNK071]	MMP-2 (Homo sapiens, UniProt P08253)	28%
SGRPLGYFGKL ([2Abz]SGRPLGYFGKL[Tyr(3-NO2)]-NH2) [LNK056]	MMP-2 (Homo sapiens, UniProt P08253)	100%
RSSYRSL ([2Abz]RSSYRSL[Tyr(3-NO2)]-NH2) [LNK075]	MMP-2 (Homo sapiens, UniProt P08253)	86%

Now examine the next entry.
Report % cleavage MMP-2 t = 120 min for GSGSGSGS ([2Abz]GSGSGSGS[Tyr(3-NO2)]-NH2) [LNK064] please.
0%
